Recorded pIC50 values (BRD4 (His-Brd4(44-477)) (Homo sapiens (Human), UniProt O60885)) are given below.
Interpret pIC50 as the negative base-10 log of the concentration measured in mol/L.

>>> df
                                   compound  quantity_name  readout_number
0  COc1ccc(-c2nc3c(n2C(C)C)[C@@H](c2ccc(Cl)cc2)N(c2cc(C)c4nnn(C)c4n2)C3=O)cn1 [Example 154]          pIC50            7.72
1  Cc1cc(N2C(=O)c3nc(C)n(C(C)C)c3C2c2ccc(Cl)cc2)nn2c(C)nnc12 (racemic) [Example 18]          pIC50            7.89
2  COc1ccc(-c2nc3c(n2C)C(c2ccc(Cl)cc2)N(c2cc(C)c(=O)n(C)c2)C3=O)cn1 (centres unmarked) [Example 8]          pIC50            7.07
3  Cc1cc(N2C(=O)c3nc(C4=CCOCC4)n(C(C)C)c3C2c2ccc(Cl)cc2)cn2c(CF)nnc12 (centres unmarked) [Example 88]          pIC50            7.41

(Q) Please report the recorded pIC50 for COc1ccc(-c2nc3c([nH]2)[C@@H](c2ccc(Cl)cc2)N(c2cc(C)c4nnc(C)n4c2)C3=O)cn1 [Example 129] .
(A) 5.74

----------
test system: K-562 cells;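 also: cellular ATP measured by luminescence after 4 days of exposure, 3-fold dilution series from 10 µM, DMSO vehicle-treated cells define 100%, cell-free medium wells −100%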
Hi! Just check whether GI50 is below 200 nM. Below gives Yes, equal or above gives No.

>>> df
                                   compound  qualitative_label
0  COc1cc(N2C(=O)c3nc(C4CC4)n(C)c3C2c2ccc(Cl)cc2)cn2c(C)nnc12 (centres unmarked)                 No
1  COc1ncccc1-c1nc2c(n1C(C)C)[C@@H](c1ccc(Cl)cc1)N(c1cc(C)c3nnn(C)c3c1)C2=O                Yes
2  COc1ccc(-c2nc3c(n2C(C)C)C(c2ccc(Cl)cc2)N(c2cc(OC)c4nnn(C)c4c2)C3=O)cn1 (centres unmarked)                 No

(Q) Lab log: compare recorded GI50 with 200 nM; is it strictly lower for COc1cc(F)ccc1-c1nc2c([nH]1)C(c1ccc(Cl)cc1)N(c1cc(C)c3nnc(C)n3c1)C2=O (centres unmarked) ?
(A) No

(Q) Now consider COc1cc(N2C(=O)c3nc(C4CCOCC4)n(C(C)C)c3C2c2ccc(Cl)cc2)cc2c1nnn2C (racemic) .
(A) Yes

(Q) What about Cc1cc(N2C(=O)c3nc(-c4nccs4)n(C(C)C)c3C2c2ccc(Cl)cc2)cn(C)c1=O (centres unmarked) ?
(A) No

(Q) // query: Cc1cc(N2C(=O)c3nc(C4=CCN(S(C)(=O)=O)CC4)n(C(C)C)c3C2c2ccc(Cl)cc2)cn2c(C)nnc12 (centres unmarked)
(A) No

(Q) Try `COc1ncc(-c2nc3c(n2C(C)C)[C@@H](c2ccc(Cl)cc2)N(c2cc(C)c4nnc(C(F)F)n4c2)C3=O)c(OC)n1` next.
(A) Yes

(Q) Try this compound next: COC(=O)N1CCC(c2nc3c(n2C(C)C)C(c2ccc(Cl)cc2)N(c2cc(C)c4nnc(C)n4c2)C3=O)CC1 (centres unmarked)
(A) No
